Taken from ChEMBL document CHEMBL1141108.

target: Histone deacetylase; assay: In vitro residual activity against Histone deacetylase (HDAC) at 1 uM concentration
Reported property: residual activity (%)

[a] Br.O=C(CCCCC(=O)NCCCNCCCNCCCNCCCNCC1CCCCCC1)NO
[b] Br.CC(C)(C)c1ccc(CNCCCCNCCCNC(=O)CCCCC(=O)O)cc1
[c] Br.O=C(CCCCCCC(=O)NCCCNCCCCNCCC(c1ccccc1)c1ccccc1)NO
[d] Br.CN(C)c1ccc(CN(CCCNCCCCN)C(=O)CCCCC(=O)NO)cc1
input: Put the above entries in order of falling residual activity. Your answer should be the labels, listed in the requested order.
output: b, a, d, c
